- System: human pancreas cancer MiaPaca-2 cells
- runDescription: Antiproliferative activity, SRB assay, 72 h
- Assay type: cell-based
- setupConditions: Homo sapiens, MIA PaCa-2; MiaPaca-1 (so in the source), 72 h, SRB; read-out: IC50
Strictly below 30 µM in IC50: Condition met. Otherwise: Condition not met.

{"columns": ["molecule", "category"],
 "data": [
  ["C=C(C)[C@@H]1CC[C@]2(CO)CC[C@]3(C)C(CCC4[C@@]5(C)CC[C@H](OC(=O)CC(C)(C)CC(=O)O)C(C)(C)C5CC[C@]43C)C12 (some centres unmarked)", "Condition met"],
  ["C=C(C)[C@@H]1CC[C@]2(COC(=O)C#CC)CC[C@]3(C)C(CCC4[C@@]5(C)CC[C@H](OC(=O)CC(C)(C)C(=O)O)C(C)(C)C5CC[C@]43C)C12 (some centres unmarked)", "Condition not met"],
  ["C=C(C)[C@@H]1CC[C@]2(CO)CC[C@]3(C)C(CCC4[C@@]5(C)CC[C@H](OC(=O)CCC(=O)O)C(C)(C)C5CC[C@]43C)C12 (some centres unmarked)", "Condition not met"],
  ["C=C(C)[C@@H]1CC[C@]2(COC(=O)C#CC3CC3)CC[C@]3(C)C(CCC4[C@@]5(C)CC[C@H](OC(=O)CC(C)(C)CC(=O)O)C(C)(C)C5CC[C@]43C)C12 (some centres unmarked)", "Condition not met"],
  ["C=C(C)[C@@H]1CC[C@]2(COC(=O)CC)CC[C@]3(C)C(CCC4[C@@]5(C)CC[C@H](OC(=O)CC(C)(C)CC(=O)O)C(C)(C)C5CC[C@]43C)C12 (some centres unmarked)", "Condition not met"],
  ["C#CC(=O)OC[C@]12CC[C@@H](C(=C)C)C1C1CCC3[C@@]4(C)CC[C@H](OC(=O)CC(C)(C)CC(=O)O)C(C)(C)C4CC[C@@]3(C)[C@]1(C)CC2 (some centres unmarked)", "Condition met"],
  ["C#CCCC(=O)OC[C@]12CC[C@@H](C(=C)C)C1C1CCC3[C@@]4(C)CC[C@H](OC(=O)CCC(=O)O)C(C)(C)C4CC[C@@]3(C)[C@]1(C)CC2 (some centres unmarked)", "Condition met"],
  ["C#CCCC(=O)OC[C@]12CC[C@@H](C(=C)C)C1C1CCC3[C@@]4(C)CC[C@H](OC(=O)CC(C)(C)C(=O)O)C(C)(C)C4CC[C@@]3(C)[C@]1(C)CC2 (some centres unmarked)", "Condition met"],
  ["C#CCCC(=O)OC[C@]12CC[C@@H](C(=C)C)C1C1CCC3[C@@]4(C)CC[C@H](OC(=O)CC(C)(C)CC(=O)O)C(C)(C)C4CC[C@@]3(C)[C@]1(C)CC2 (some centres unmarked)", "Condition met"]
]}

----------
Listing: pIC50 of selected compounds
- Tested on: human biphenotypic B myelomonocytic leukemia MV4-11
- runDescription: Antiproliferative activity, MTT assay, 72 h
- Type: cell-based
- setupConditions: Homo sapiens; MV4-11, 72 h, MTT; read-out: IC50
- Method: The tested compounds were dissolved in DMSO (dimethyl sulfoxide) to a concentration of 10 mg/mL and then were diluted in the culture medium to reach the final concentrations. […] The IC50 values in µg/mL were calculated to µM. This assay was used against MV4-11 leukemia cells and was performed after 72 h of exposure of the tested agents to the cells. […] After the next 24 h, the absorbance of the samples was measured at a 570 nm wavelength on a Synergy H4 photometer (BioTek Instruments, Winooski, VT, USA). […]
pIC50: −log10 of the molar value.

{"columns": ["compound", "pIC50"],
 "data": [
  ["C=C(C)[C@@H]1CC[C@]2(COC(=O)C#CC3CC3)CC[C@]3(C)C(CCC4[C@@]5(C)CC[C@H](OC(=O)CC(C)(C)CC(=O)O)C(C)(C)C5CC[C@]43C)C12 (some centres unmarked)", 5.50],
  ["C=C(C)[C@@H]1CC[C@]2(COC(=O)CC)CC[C@]3(C)C(CCC4[C@@]5(C)CC[C@H](OC(=O)CC(C)(C)CC(=O)O)C(C)(C)C5CC[C@]43C)C12 (some centres unmarked)", 5.29],
  ["C=C(C)[C@@H]1CC[C@]2(CO)CC[C@]3(C)[C@H](CC[C@@H]4[C@@]5(C)CC[C@H](O)C(C)(C)[C@@H]5CC[C@]43C)[C@@H]12 [B, betulin, reference compound]", 4.48],
  ["C=C(C)[C@@H]1CC[C@]2(COC(=O)C#CC)CC[C@]3(C)C(CCC4[C@@]5(C)CC[C@H](OC(=O)CC(C)(C)CC(=O)O)C(C)(C)C5CC[C@]43C)C12 (some centres unmarked)", 5.49],
  ["C#CC(=O)OC[C@]12CC[C@@H](C(=C)C)C1C1CCC3[C@@]4(C)CC[C@H](OC(=O)CC(C)(C)C(=O)O)C(C)(C)C4CC[C@@]3(C)[C@]1(C)CC2 (some centres unmarked)", 6.22],
  ["C#CC(=O)OC[C@]12CC[C@@H](C(=C)C)C1C1CCC3[C@@]4(C)CC[C@H](OC(=O)CC(C)(C)CC(=O)O)C(C)(C)C4CC[C@@]3(C)[C@]1(C)CC2 (some centres unmarked)", 6.42],
  ["C=C(C)[C@@H]1CC[C@]2(CO)CC[C@]3(C)C(CCC4[C@@]5(C)CC[C@H](OC(=O)CC(C)(C)C(=O)O)C(C)(C)C5CC[C@]43C)C12 (some centres unmarked)", 5.11],
  ["C#CCCC(=O)OC[C@]12CC[C@@H](C(=C)C)C1C1CCC3[C@@]4(C)CC[C@H](OC(=O)CC(C)(C)CC(=O)O)C(C)(C)C4CC[C@@]3(C)[C@]1(C)CC2 (some centres unmarked)", 5.50]
]}
